Tested on: OVCA 429 cells
Applied Conditions: OVCA 429 cells with specific siRNA
Measure Name: 429: increased sensitivity to cis-platin

Substance	Measure Name	Result
eIF2Bε siRNA #1: siRNA to e-IF2Bε; target sequence AATGTGGTTCGAATAATTACA (guide AATGTGGTTCGAATAATTACA; target site or template, no part of the molecule; listed as DNA, chemistry not given here; listed as Homo Sapiens)	429: increased sensitivity to cis-platin	yes
WDR1 siRNA #1: siRNA to WDR1; target sequence AATGGAAAGTGCGTCATCCTA (guide AATGGAAAGTGCGTCATCCTA; target site or template, no part of the molecule; listed as DNA, chemistry not given here; listed as Homo Sapiens)	429: increased sensitivity to cis-platin	no
NM23D siRNA #3: siRNA to NM23-D; target sequence AATGTCATCCACGCCAGCGAC (guide AATGTCATCCACGCCAGCGAC; target site or template, no part of the molecule; listed as DNA, chemistry not given here; listed as Homo Sapiens)	429: increased sensitivity to cis-platin	yes
SAPK/Erk1 siRNA #2: siRNA to SAPK/Erk1; target sequence AAGCGCATCACGACAAGGATA (guide AAGCGCATCACGACAAGGATA; target site or template, no part of the molecule; listed as DNA, chemistry not given here; listed as Homo Sapiens)	429: increased sensitivity to cis-platin	yes
RNPS1 siRNA #1: siRNA to RNPS1; target sequence AATATTCATACGGCATGGACT (guide SDNAATATTCATACGGCATGGACT; target site or template, no part of the molecule; listed as DNA, chemistry not given here; listed as Homo Sapiens)	429: increased sensitivity to cis-platin	yes

For each listed entry, give its 429: increased sensitivity to cis-platin.
1. Vinexin β siRNA #2: siRNA to Vinexin (AF037261); target sequence AAGAGTTACCTAGAAGCACCT (guide AAGAGTTACCTAGAAGCACCT; target site or template, no part of the molecule; listed as DNA, chemistry not given here; listed as Homo Sapiens)
2. Zinc finger protein 262/MYM siRNA #3: siRNA to zinc finger protein 262/MYM; target sequence AAAATATGGGAACCTACAATA (guide AAAATATGGGAACCTACAATA; target site or template, no part of the molecule; listed as DNA, chemistry not given here; listed as Homo Sapiens)
3. SRB1 siRNA #1: siRNA to SRB1; target sequence AAGCAGCAGGTCCTTAAGAAC (guide AAGCAGCAGGTCCTTAAGAAC; target site or template, no part of the molecule; listed as DNA, chemistry not given here; listed as Homo Sapiens)
4. eIF5 siRNA #1: siRNA to eIF5; target sequence AATGACCGTTACATTGTCAAT (guide AATGACCGTTACATTGTCAAT; target site or template, no part of the molecule; listed as DNA, chemistry not given here; listed as Homo Sapiens)

Reply text:
["no", "yes", "yes", "yes"]
